Origin of the recorded values: patent US7704992B2

System: HCV 1b-377-neo replicon cells
Assay: HCV Replicon assay, HCV 1b genotype
Format: cell-based
Settings: Hepatitis C virus, value in pM, read-out: EC50 value against HCV 1b
Experimental: An HCV Replicon assay was utilized in the present disclosure, and was prepared, conducted and validated as described in commonly owned PCT/US2006/022197 and in O'Boyle et. al. Antimicrob Agents Chemother. 2005 April; 49(4): 1346-53. HCV 1b-377-neo replicon cells were used to test the currently described compound series as well as cells resistant to compound A containing a Y2065H mutation in NS5A (described in application PCT/US2006/022197). […]
Item-by-item account of EC50
Respond with the bare value in pM.

1. COC(=O)N[C@H](C(=O)N1CCC[C@H]1c1ncc(-c2ccc3c(c2)C(=O)c2cc(-c4cnc([C@@H]5CCCN5C(=O)[C@@H](NC(=O)OC)C(C)C)[nH]4)ccc2-3)[nH]1)C(C)C = 9

// fetch EC50; item: COCCn1c2cc(-c3cnc([C@@H]4CCCN4C(=O)[C@@H](NC(=O)OC)[C@@H](C)OC)[nH]3)ccc2c2ccc(-c3cnc([C@@H]4CCCN4C(=O)[C@@H](NC(=O)OC)[C@@H](C)OC)[nH]3)cc21 ; system: HCV 1b-377-neo replicon cells
662

// fetch EC50; item: COC(=O)N[C@H](C(=O)N1CCC[C@H]1c1ncc(-c2ccc3c(c2)C(C)(C)c2cc(-c4cnc([C@@H]5CCCN5C(=O)[C@@H](NC(=O)OC)C5CC5)[nH]4)ccc2-3)[nH]1)C1CC1 ; system: HCV 1b-377-neo replicon cells
52

// fetch EC50; item: COC(=O)N[C@H](C(=O)N1CCC[C@H]1c1ncc(-c2ccc3c(c2)COCc2cc(-c4cnc([C@@H]5CCCN5C(=O)[C@@H](NC(=O)OC)[C@@H](C)OC)[nH]4)ccc2-3)[nH]1)[C@@H](C)OC ; system: HCV 1b-377-neo replicon cells
146
